Measured pIC50, listed per entry.
Tested on: CEM cells HIV-1 protection, formazan growth assay
assayProtocol: NCI AIDS Antiviral Assay
testConditions: measured here: growth of uninfected CEM cells
Description: The ability of compounds to protect human CEM cells from HIV-1 infection is measured as a screen for new compounds capable of inhibiting the HIV virus. Five concentrations of drug were tested on uninfected and infected cells and cell growth was measured using a soluble formazan assay. […] Compounds that provided at least 50% protection were retested. Compounds that provided at least 50% protection on retest were listed as moderately active. […]
Hey, just a heads up that pIC50 is the negative log base 10 of the concentration in molar.

Previously resolved entries follow.
| compound | testedTarget | pIC50 |
| --- | --- | --- |
| CC(CN(C)C)Nc1c2ccccc2nc2cccc([N+](=O)[O-])c12 (configuration not stated) | CEM cells HIV-1 protection, formazan growth assay | 6.01 |
| Cc1cc2c(cc1-c1cc3c(cc1C)C(C(C)C)=C(O)C(=O)/C3=C\Nc1c(C)n(C)n(-c3ccccc3)c1=O)/C(=C/Nc1c(C)n(C)n(-c3ccccc3)c1=O)C(=O)C(O)=C2C(C)C | CEM cells HIV-1 protection, formazan growth assay | 4.46 |
| O=C(NCP(=O)(Oc1ccccc1)Oc1ccccc1)OCc1ccccc1 | CEM cells HIV-1 protection, formazan growth assay | 3.79 |

Task: So what's the measured pIC50 for this one? COc1c2c3c(ccnc3c3ccccc13)C(=O)N2C
Output: 5.02

Task: So what's the measured pIC50 for this one? CCOC(=O)Nc1cc2c(c(N)n1)N=C(c1ccccc1)CN2
Output: 7.50

Task: So what's the measured pIC50 for this one? COc1ccccc1/C=C/C(=O)C(C)(C)C
Output: 4.16

Task: So what's the measured pIC50 for this one? C[C@@H]1C(=O)OCC2=C3C[C@@H](CC[C@@]3(C)C=CC2=O)[C@H](C)C(=O)OCC2=C3C[C@H]1CC[C@@]3(C)C=CC2=O
Output: 4.67

Task: So what's the measured pIC50 for this one? Cc1cccc(NC(=O)O/N=C(\Cl)C(C)C)c1
Output: 5.55

Task: So what's the measured pIC50 for this one? CN1CCN(C(=S)N(C(=O)c2cccs2)C2CCCCC2)CC1
Output: 4.04

From: PubChem BioAssay AID179
